meta.source: ChEMBL document CHEMBL1125484

# assay.remarks: Partition coefficient (logP)
# Format: physicochemical
# condition.parameters: octanol/water
Rule: logP under 4 gives NOT MET, otherwise MET.

Record `CCCCc1nc(Cl)c(CO)n1Cc1ccc(C2=C(c3nnn[nH]3)CCC2)cc1` ; criterion: logP no lower than 4. Met?
NOT MET

Record `CCCCc1nc(Cl)c(CO)n1Cc1ccc(-c2ccccc2-c2nnn[nH]2)cc1` ; criterion: logP no lower than 4. Met?
MET

Record `CCCCc1nc(Cl)c(CO)n1Cc1ccc(C2=C(c3nnn[nH]3)CCCC2)cc1` ; criterion: logP no lower than 4. Met?
MET

Record `CCCCc1nc(Cl)c(C(=O)O)n1Cc1ccc(C2=C(c3nn[nH]n3)CCCC2)cc1` ; criterion: logP no lower than 4. Met?
MET

Record `CCCCc1nc(Cl)c(CO)n1Cc1ccc(C2=C(c3nn[nH]n3)CCCCC2)cc1` ; criterion: logP no lower than 4. Met?
MET
